Cited source: paper PMC8658016

Experiment: Pharmacokinetic study in mice, serum and brain (LC-MS/MS)
Format: in vivo, mouse
Conditions: male, CD-1, mouse, ip; serum; mice, 40 mg/kg i.p.
observation type: Tmax (min)

{"molecule": "CN(C)C1CC(=O)N(C(C(=O)N2CCN(c3cccc(C(F)(F)F)c3)CC2)c2ccccc2)C1=O.Cl (stereo not shown)", "reported value": 5}

====

System: mice
Assay: Psychomotor 6 Hz (32 mA) seizure test
Format: in vivo, mouse
Details: mice i.p., 100 mg/kg, 0.5 h
observation type: 6 Hz (32 mA) screening: number of mice protected / number of mice tested

{"molecule": "CNC1CC(=O)N(C(C(=O)N2CCN(c3cccc(C(F)(F)F)c3)CC2)c2ccccc2)C1=O.Cl (stereo not shown)", "reported value": "2/4"}
{"molecule": "CN(C)C1CC(=O)N([C@@H](C(=O)N2CCN(c3cccc(OC(F)(F)F)c3)CC2)c2ccccc2)C1=O.Cl (stereo partly shown)", "reported value": "3/4"}
{"molecule": "CN(C)C1CC(=O)N([C@@H](C(=O)N2CCN(c3cccc(SC(F)(F)F)c3)CC2)c2ccccc2)C1=O.Cl (stereo partly shown)", "reported value": "1/4"}
{"molecule": "CN(C)C1CC(=O)N(C(C(=O)N2CCN(c3cccc(OC(F)(F)F)c3)CC2)c2ccccc2)C1=O.Cl (stereo not shown)", "reported value": "2/4"}
{"molecule": "CN(C)C1CC(=O)N([C@H](C(=O)N2CCN(c3cccc(C(F)(F)F)c3)CC2)c2ccccc2)C1=O.Cl (stereo partly shown)", "reported value": "2/4"}
{"molecule": "Cl.O=C(C(c1ccccc1)N1C(=O)CC(N2CCOCC2)C1=O)N1CCN(c2cccc(C(F)(F)F)c2)CC1 (stereo not shown)", "reported value": "0/4"}
{"molecule": "CN(C)C1CC(=O)N([C@@H](C(=O)N2CCN(c3cccc(C(F)(F)F)c3)CC2)c2ccccc2)C1=O.Cl (stereo partly shown)", "reported value": "3/4"}
{"molecule": "CCN(CC)C1CC(=O)N(C(C(=O)N2CCN(c3cccc(C(F)(F)F)c3)CC2)c2ccccc2)C1=O.Cl (stereo not shown)", "reported value": "3/4"}
{"molecule": "CN(C)C1CC(=O)N(C(C(=O)N2CCN(c3cccc(SC(F)(F)F)c3)CC2)c2ccccc2)C1=O.Cl (stereo not shown)", "reported value": "1/4"}
{"molecule": "CN(C)C1CC(=O)N(C(C(=O)N2CCN(c3cccc(C(F)(F)F)c3)CC2)c2ccccc2)C1=O.Cl (stereo not shown)", "reported value": "3/4"}

====

Assay: Pharmacokinetic study in mice, serum and brain (LC-MS/MS)
Format: in vivo, mouse
Conditions: male, CD-1, mouse, ip; serum; mice, 40 mg/kg i.p.; non-compartmental analysis; read-out: λz (converted)

{"compound": "CN(C)C1CC(=O)N(C(C(=O)N2CCN(c3cccc(C(F)(F)F)c3)CC2)c2ccccc2)C1=O.Cl (stereo not shown) [Compound 14]", "k el [s⁻¹]": 0.000183}

====

observation type: melting point

{"compound": "CN(C)C1CC(=O)N(C(C(=O)N2CCN(c3cccc(SC(F)(F)F)c3)CC2)c2ccccc2)C1=O.Cl (stereo not shown)", "reported value": "170.1 to 171.5 °C"}
{"compound": "Cl.O=C(C(c1ccccc1)N1C(=O)CC(N2CCOCC2)C1=O)N1CCN(c2cccc(C(F)(F)F)c2)CC1 (stereo not shown)", "reported value": "146.2 to 147.5 °C"}
{"compound": "CN(C)C1CC(=O)N([C@@H](C(=O)N2CCN(c3cccc(C(F)(F)F)c3)CC2)c2ccccc2)C1=O.Cl (stereo partly shown)", "reported value": "169.8 to 170.6 °C"}
{"compound": "CN(C)C1CC(=O)N([C@H](C(=O)N2CCN(c3cccc(C(F)(F)F)c3)CC2)c2ccccc2)C1=O.Cl (stereo partly shown)", "reported value": "169.2 to 170.8 °C"}
{"compound": "CN(C)C1CC(=O)N([C@@H](C(=O)N2CCN(c3cccc(OC(F)(F)F)c3)CC2)c2ccccc2)C1=O.Cl (stereo partly shown)", "reported value": "164.8 to 165.7 °C"}
{"compound": "CCN(CC)C1CC(=O)N(C(C(=O)N2CCN(c3cccc(C(F)(F)F)c3)CC2)c2ccccc2)C1=O.Cl (stereo not shown)", "reported value": "142.2 to 143.1 °C"}
{"compound": "CN(C)C1CC(=O)N(C(C(=O)N2CCN(c3cccc(C(F)(F)F)c3)CC2)c2ccccc2)C1=O.Cl (stereo not shown)", "reported value": "157.8 to 159.2 °C"}

====

Test: Pharmacokinetic study in mice, serum and brain (LC-MS/MS)
Assay type: in vivo, mouse
Settings: male, CD-1, mouse, ip; brain; mice, 40 mg/kg i.p.

{"compound": "CN(C)C1CC(=O)N(C(C(=O)N2CCN(c3cccc(C(F)(F)F)c3)CC2)c2ccccc2)C1=O.Cl (stereo not shown)", "Tmax": "15 min"}

====

Assay: Pharmacokinetic study in mice, serum and brain (LC-MS/MS)
Format: in vivo, mouse
Conditions: male, CD-1, mouse, ip; serum; mice, 40 mg/kg i.p.
Description: The amount of the target compound in the serum and brain was determined by an LC-MS/MS system. […] The compound also very quickly penetrated to the murine brain and reached the maximum concentration in this organ at 15 min. […] The validated quantitation ranges for this method were within the expected concentration ranges, namely, from 0.1 to 20 µg/mL of serum and from 0.05 to 10 µg/g of brain tissue with accuracy from 93.73 to 104.29% and from 88.33 to 107% for serum and brain, respectively. […]
observation type: CL/F (mL/min/kg)

{"compound": "CN(C)C1CC(=O)N(C(C(=O)N2CCN(c3cccc(C(F)(F)F)c3)CC2)c2ccccc2)C1=O.Cl (stereo not shown)", "observation type": "CL/F", "reported value": 27}

====

The entries below are paired with their reported scPTZ screening: number of mice protected / number of mice tested.
Tested on: mice
Assay: Subcutaneous pentylenetetrazole (scPTZ) seizure test
Type: in vivo, mouse
Conditions: mice i.p., 100 mg/kg, 0.5 h
observation type: scPTZ screening: number of mice protected / number of mice tested

{"compound": "CCN(CC)C1CC(=O)N(C(C(=O)N2CCN(c3cccc(C(F)(F)F)c3)CC2)c2ccccc2)C1=O.Cl (stereo not shown)", "reported value": "1/4"}
{"compound": "Cl.O=C(C(c1ccccc1)N1C(=O)CC(N2CCOCC2)C1=O)N1CCN(c2cccc(C(F)(F)F)c2)CC1 (stereo not shown)", "reported value": "1/4"}
{"compound": "CN(C)C1CC(=O)N([C@@H](C(=O)N2CCN(c3cccc(SC(F)(F)F)c3)CC2)c2ccccc2)C1=O.Cl (stereo partly shown)", "reported value": "1/4"}
{"compound": "CN(C)C1CC(=O)N(C(C(=O)N2CCN(c3cccc(C(F)(F)F)c3)CC2)c2ccccc2)C1=O.Cl (stereo not shown)", "reported value": "2/4"}
{"compound": "CN(C)C1CC(=O)N([C@H](C(=O)N2CCN(c3cccc(C(F)(F)F)c3)CC2)c2ccccc2)C1=O.Cl (stereo partly shown)", "reported value": "1/4"}
{"compound": "CN(C)C1CC(=O)N(C(C(=O)N2CCN(c3cccc(SC(F)(F)F)c3)CC2)c2ccccc2)C1=O.Cl (stereo not shown)", "reported value": "1/4"}
{"compound": "CN(C)C1CC(=O)N([C@@H](C(=O)N2CCN(c3cccc(C(F)(F)F)c3)CC2)c2ccccc2)C1=O.Cl (stereo partly shown)", "reported value": "3/4"}

====

Test: Pharmacokinetic study in mice, serum and brain (LC-MS/MS)
Format: in vivo, mouse
Details: male, CD-1, mouse, brain, ip; mice, 40 mg/kg i.p.; read-out: brain level 30 min post-dose

{"compound": "CN(C)C1CC(=O)N(C(C(=O)N2CCN(c3cccc(C(F)(F)F)c3)CC2)c2ccccc2)C1=O.Cl (stereo not shown) [Compound 14]", "concentration at 30 min (ng/g)": 3500}

====

System: mice
Assay: Subcutaneous pentylenetetrazole (scPTZ) seizure test
Assay type: in vivo, mouse
Conditions: mice i.p., 100 mg/kg, 0.5 h
The entries below are paired with their reported scPTZ screening: number of mice protected / number of mice tested.
observation type: scPTZ screening: number of mice protected / number of mice tested

{"compound": "CN(C)C1CC(=O)N(C(C(=O)N2CCN(c3cccc(OC(F)(F)F)c3)CC2)c2ccccc2)C1=O.Cl (stereo not drawn)", "reported value": "3/4"}
{"compound": "CN(C)C1CC(=O)N([C@@H](C(=O)N2CCN(c3cccc(OC(F)(F)F)c3)CC2)c2ccccc2)C1=O.Cl (stereo partly drawn)", "reported value": "3/4"}
{"compound": "CNC1CC(=O)N(C(C(=O)N2CCN(c3cccc(C(F)(F)F)c3)CC2)c2ccccc2)C1=O.Cl (stereo not drawn)", "reported value": "2/4"}
